Numbers sourced from ChEMBL document CHEMBL2203001.

Assay: Cytotoxicity against mouse BV2 cells assessed as cell viability at 20 uM by MTT assay relative to LPS-treated cells
Assay type: cell-based, BV-2
Conditions: read-out: Activity

compound	viability at 20 µM / %
O=c1c(O[C@@H]2O[C@H](CO)[C@@H](O)[C@H](O)[C@H]2O)c(-c2ccc(O)cc2)oc2cc(O)cc(O)c12	106
O=c1c(O[C@@H]2O[C@H](CO)[C@@H](O)[C@H](O)[C@H]2O)c(-c2ccc(O[C@@H]3O[C@H](CO)[C@@H](O)[C@H](O)[C@H]3O)c(O)c2)oc2cc(O)cc(O)c12	100
COc1cc(/C=C/C(=O)O[C@H]2[C@H](Oc3cc(O)c4c(=O)c(O[C@@H]5O[C@H](CO)[C@@H](O)[C@H](O)[C@H]5O)c(-c5ccc(O)cc5)oc4c3)O[C@H](CO)[C@@H](O)[C@@H]2O)ccc1O	106
O=C(/C=C/c1ccc(O)cc1)O[C@H]1[C@H](Oc2c(-c3ccc(O[C@H]4O[C@@H](CO)[C@H](O)[C@@H](O)[C@@H]4O)c(O)c3)oc3cc(O)cc(O)c3c2=O)O[C@H](CO)[C@@H](O)[C@@H]1O [ALLIVICTOSIDE G]	101
O=c1c(O[C@@H]2O[C@H](CO)[C@@H](O)[C@H](O)[C@H]2O)c(-c2ccc(O[C@@H]3O[C@H](CO)[C@@H](O)[C@H](O)[C@H]3O)cc2)oc2cc(O[C@@H]3O[C@H](CO)[C@@H](O)[C@H](O)[C@H]3O)cc(O)c12	102
O=c1c(O[C@@H]2O[C@H](CO)[C@@H](O)[C@H](O)[C@H]2O)c(-c2ccc(O[C@@H]3O[C@H](CO)[C@@H](O)[C@H](O)[C@H]3O)cc2)oc2cc(O)cc(O)c12	99.1
CNC(=N)NCCC[C@H](N)C(=O)O	98.2
O=C(/C=C/c1ccc(O)cc1)O[C@H]1[C@H](Oc2c(-c3ccc(O[C@@H]4O[C@H](CO)[C@@H](O)[C@H](O)[C@H]4O)cc3)oc3cc(O[C@@H]4O[C@H](CO)[C@@H](O)[C@H](O)[C@H]4O)cc(O)c3c2=O)O[C@H](CO)[C@@H](O)[C@@H]1O [ALLIVICTOSIDE C]	104
COc1cc(/C=C/C(=O)O[C@H]2[C@H](Oc3c(-c4ccc(O)cc4)oc4cc(O[C@@H]5O[C@H](CO)[C@@H](O)[C@H](O)[C@H]5O)cc(O)c4c3=O)O[C@H](CO)[C@@H](O)[C@@H]2O)ccc1O [ALLIVICTOSIDE F]	100
COc1cc(/C=C/C(=O)O[C@H]2[C@H](Oc3c(-c4ccc(O[C@@H]5O[C@H](CO)[C@@H](O)[C@H](O)[C@H]5O)cc4)oc4cc(O[C@@H]5O[C@H](CO)[C@@H](O)[C@H](O)[C@H]5O)cc(O)c4c3=O)O[C@H](CO)[C@@H](O)[C@@H]2O)ccc1O	101
